Kindly supply the reported koff values for the records listed here.
- Study target: T1, human IGF2^1-67 (mature insulin-like growth factor 2) (human, UniProt P01344 25-91, biotinylated (site not stated) where immobilised on the chip (Tables 1-4))
- T1 construct: mature; also called mature IGF2; biotinylated IGF2
- T1 sequence (P01344 25-91): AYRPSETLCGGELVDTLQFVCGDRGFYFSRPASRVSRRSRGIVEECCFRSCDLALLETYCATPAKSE
- Measurement description: SPR kinetic, biotin-IGF2 on chip, pH 7.4
Write it as a number; the unit s⁻¹ goes unstated.

Look at this binder and give its reported koff. domain 11^AB5 P1597K S1602H (receptor, See m5) MKSNEHDDCQVTNPSTGHLFDLSSLSGRAGFTAAYAKGWGVYMSICGENENCPPGVGACFGQTRISVGKANKRLRYVDQVLQLVYKDGSKCPSKHGLSYKSVISFVCRPEAGPTNRPMLISLDKQTCTLFFSWHTPLACEQATECSV
0.0096

Look at this binder and give its reported koff. domain 11^AB3 Q1569R P1597H S1602H G1603K (receptor, See m5) MKSNEHDDCQVTNPSTGHLFDLSSLSGRAGFTAAYSKSGVVYMSICGENENCPPGVGACFGRTRISVGKANKRLRYVDQVLQLVYKDGSHCPSKHKLSYKSVISFVCRPEAGPTNRPMLISLDKQTCTLFFSWHTPLACEQATECSV
0.0108

Look at this binder and give its reported koff. domain 11^AB3 Q1569R P1597K S1602H G1603K (receptor, See m5) MKSNEHDDCQVTNPSTGHLFDLSSLSGRAGFTAAYSKSGVVYMSICGENENCPPGVGACFGRTRISVGKANKRLRYVDQVLQLVYKDGSKCPSKHKLSYKSVISFVCRPEAGPTNRPMLISLDKQTCTLFFSWHTPLACEQATECSV
0.0171

Look at this binder and give its reported koff. domain 11^AB3 Q1569R P1597H S1602H (receptor, See m5) MKSNEHDDCQVTNPSTGHLFDLSSLSGRAGFTAAYSKSGVVYMSICGENENCPPGVGACFGRTRISVGKANKRLRYVDQVLQLVYKDGSHCPSKHGLSYKSVISFVCRPEAGPTNRPMLISLDKQTCTLFFSWHTPLACEQATECSV
0.01
